FYI, the data here is from paper PMC6733935.

# Procedure summary: Radio-HPLC retention time as reflection of lipophilicity
# Assay type: physicochemical
# Condition description: chromatographic, econosphere C18 (10 μm, 250 × 4.6 mm), 0.1% TFA water/acetonitrile, 5 to 95% B over 30 min, 1.1 mL/min; radio detection; used as reflection of lipophilicity
Numbered stars: 1 amine (or outer) side, 2 acyl side, 3 side chain; on linkers, the order of the positions; unused ones are H or OH. Square brackets hold non-standard residues; d marks the D form. Peptide text beside a SMILES is read from it. * marks the point of attachment. DOTA = O=C(O)CN1CCN(CC(=O)O)CCN(CC(=O)*)CCN(CC(=O)O)CC1; Cha = N[C@@H](CC1CCCCC1)C(=O)O; X1 = O=C(CCC(=O)[*:2])CN[*:1]; 4Abz = Nc1ccc(C(=O)O)cc1; Nle = CCCC[C@H](N)C(=O)O; Ahx = NCCCCCC(=O)O
Parameter measured: Radio-HPLC tR (min)
I only need the number, in min, no unit after it.

Take a look at these entries with their results.
CCCC[C@H](NC(=O)[C@H](Cc1c[nH]cn1)NC(=O)[C@H](CC1CCCCC1)NC(=O)[C@@H](NC(=O)[C@H](C)NC(=O)[C@H](Cc1c[nH]c2ccccc12)NC(=O)[C@H](CCC(N)=O)NC(=O)[C@H](CS)NC(=O)CNC(=O)CNC(=O)CCC(=O)CNC(=O)CN1CCN(CC(=O)O)CCN(CC(=O)O)CCN(CC(=O)O)CC1)C(C)C)C(=O)N[C@@H](CCSC)C(N)=O [^68Ga-DOTA-ALA-BN Tris-, metal not drawn] ({DOTA}-[X1]GGCQWAV[Cha]H[Nle]M-NH2)    20.3
CCCC[C@H](NC(=O)[C@H](Cc1c[nH]cn1)NC(=O)[C@H](CC1CCCCC1)NC(=O)[C@@H](NC(=O)[C@H](C)NC(=O)[C@H](Cc1c[nH]c2ccccc12)NC(=O)[C@H](CCC(N)=O)NC(=O)[C@H](CS)NC(=O)CNC(=O)CNC(=O)CCCCCNC(=O)CN1CCN(CC(=O)O)CCN(CC(=O)O)CCN(CC(=O)O)CC1)C(C)C)C(=O)N[C@@H](CCSC)C(N)=O [^68Ga-DOTA-Ahx-BN Cyclen, metal not drawn] ({DOTA-Ahx}-GGCQWAV[Cha]H[Nle]M-NH2)    18.3
CCCC[C@H](NC(=O)[C@H](Cc1c[nH]cn1)NC(=O)[C@H](CC1CCCCC1)NC(=O)[C@@H](NC(=O)[C@H](C)NC(=O)[C@H](Cc1c[nH]c2ccccc12)NC(=O)[C@H](CCC(N)=O)NC(=O)[C@H](CS)NC(=O)CNC(=O)CNC(=O)CCC(=O)CNC(=O)CN1CCN(CC(=O)O)CCN(CC(=O)O)CCN(CC(=O)O)CC1)C(C)C)C(=O)N[C@@H](CCSC)C(N)=O [^68Ga-DOTA-ALA-BN Cyclen, metal not drawn] ({DOTA}-[X1]GGCQWAV[Cha]H[Nle]M-NH2)    20.3

Please look up its Radio-HPLC tR: CCCC[C@H](NC(=O)[C@H](Cc1c[nH]cn1)NC(=O)[C@H](CC1CCCCC1)NC(=O)[C@@H](NC(=O)[C@H](C)NC(=O)[C@H](Cc1c[nH]c2ccccc12)NC(=O)[C@H](CCC(N)=O)NC(=O)[C@H](CS)NC(=O)CNC(=O)CNC(=O)c1ccc(NC(=O)CN2CCN(CC(=O)O)CCN(CC(=O)O)CCN(CC(=O)O)CC2)cc1)C(C)C)C(=O)N[C@@H](CCSC)C(N)=O [^68Ga-DOTA-Abz-BN Tris-, metal not drawn] ({DOTA-4Abz}-GGCQWAV[Cha]H[Nle]M-NH2)
19.3

For CCCC[C@H](NC(=O)[C@H](Cc1c[nH]cn1)NC(=O)[C@H](CC1CCCCC1)NC(=O)[C@@H](NC(=O)[C@H](C)NC(=O)[C@H](Cc1c[nH]c2ccccc12)NC(=O)[C@H](CCC(N)=O)NC(=O)[C@H](CS)NC(=O)CNC(=O)CNC(=O)c1ccc(NC(=O)CN2CCN(CC(=O)O)CCN(CC(=O)O)CCN(CC(=O)O)CC2)cc1)C(C)C)C(=O)N[C@@H](CCSC)C(N)=O [^68Ga-DOTA-Abz-BN Cyclen, metal not drawn] ({DOTA-4Abz}-GGCQWAV[Cha]H[Nle]M-NH2) then?
19.2

For CCCC[C@H](NC(=O)[C@H](Cc1c[nH]cn1)NC(=O)[C@H](CC1CCCCC1)NC(=O)[C@@H](NC(=O)[C@H](C)NC(=O)[C@H](Cc1c[nH]c2ccccc12)NC(=O)[C@H](CCC(N)=O)NC(=O)[C@H](CS)NC(=O)CNC(=O)CNC(=O)CCCCCNC(=O)CN1CCN(CC(=O)O)CCN(CC(=O)O)CCN(CC(=O)O)CC1)C(C)C)C(=O)N[C@@H](CCSC)C(N)=O [^68Ga-DOTA-Ahx-BN Tris-, metal not drawn] ({DOTA-Ahx}-GGCQWAV[Cha]H[Nle]M-NH2) then?
18.3

###

# Tested on: BN/GRP receptor-positive T47D human breast cancer cells (Homo sapiens, UniProt P30550)
# Construct: BN/GRP receptor-positive MDA-MB-231, MCF7, T47D human breast cancer, and PC3 human prostate cancer lines; host or cells: MDA-MB-231, MCF7, T47D (human breast cancer), PC3 (human prostate cancer); intact cells
# Procedure summary: Saturation binding assay on T47D cells
# Condition description: n = 3-5 experiments, SD < 15%
Numbered stars: 1 amine (or outer) side, 2 acyl side, 3 side chain; on linkers, the order of the positions; unused ones are H or OH. Square brackets hold non-standard residues; d marks the D form. Peptide text beside a SMILES is read from it. * marks the point of attachment. DOTA = O=C(O)CN1CCN(CC(=O)O)CCN(CC(=O)*)CCN(CC(=O)O)CC1; Cha = N[C@@H](CC1CCCCC1)C(=O)O; X1 = O=C(CCC(=O)[*:2])CN[*:1]; 4Abz = Nc1ccc(C(=O)O)cc1; Nle = CCCC[C@H](N)C(=O)O; Ahx = NCCCCCC(=O)O
List of Bmax (apparent number of binding sites per cell) values.

Take a look at these entries with their results.
CCCC[C@H](NC(=O)[C@H](Cc1c[nH]cn1)NC(=O)[C@H](CC1CCCCC1)NC(=O)[C@@H](NC(=O)[C@H](C)NC(=O)[C@H](Cc1c[nH]c2ccccc12)NC(=O)[C@H](CCC(N)=O)NC(=O)[C@H](CS)NC(=O)CNC(=O)CNC(=O)CCC(=O)CNC(=O)CN1CCN(CC(=O)O)CCN(CC(=O)O)CCN(CC(=O)O)CC1)C(C)C)C(=O)N[C@@H](CCSC)C(N)=O [^68Ga-DOTA-ALA-BN Cyclen, metal not drawn] ({DOTA}-[X1]GGCQWAV[Cha]H[Nle]M-NH2)    9.90 × 10^4 sites/cell
CCCC[C@H](NC(=O)[C@H](Cc1c[nH]cn1)NC(=O)[C@H](CC1CCCCC1)NC(=O)[C@@H](NC(=O)[C@H](C)NC(=O)[C@H](Cc1c[nH]c2ccccc12)NC(=O)[C@H](CCC(N)=O)NC(=O)[C@H](CS)NC(=O)CNC(=O)CNC(=O)c1ccc(NC(=O)CN2CCN(CC(=O)O)CCN(CC(=O)O)CCN(CC(=O)O)CC2)cc1)C(C)C)C(=O)N[C@@H](CCSC)C(N)=O [^68Ga-DOTA-Abz-BN Cyclen, metal not drawn] ({DOTA-4Abz}-GGCQWAV[Cha]H[Nle]M-NH2)    1.17 × 10^5 sites/cell
CCCC[C@H](NC(=O)[C@H](Cc1c[nH]cn1)NC(=O)[C@H](CC1CCCCC1)NC(=O)[C@@H](NC(=O)[C@H](C)NC(=O)[C@H](Cc1c[nH]c2ccccc12)NC(=O)[C@H](CCC(N)=O)NC(=O)[C@H](CS)NC(=O)CNC(=O)CNC(=O)CCCCCNC(=O)CN1CCN(CC(=O)O)CCN(CC(=O)O)CCN(CC(=O)O)CC1)C(C)C)C(=O)N[C@@H](CCSC)C(N)=O [^68Ga-DOTA-Ahx-BN Tris-, metal not drawn] ({DOTA-Ahx}-GGCQWAV[Cha]H[Nle]M-NH2)    4.91 × 10^5 sites/cell

Now examine the next entry.
Please look up its Bmax (apparent number of binding sites per cell): CCCC[C@H](NC(=O)[C@H](Cc1c[nH]cn1)NC(=O)[C@H](CC1CCCCC1)NC(=O)[C@@H](NC(=O)[C@H](C)NC(=O)[C@H](Cc1c[nH]c2ccccc12)NC(=O)[C@H](CCC(N)=O)NC(=O)[C@H](CS)NC(=O)CNC(=O)CNC(=O)c1ccc(NC(=O)CN2CCN(CC(=O)O)CCN(CC(=O)O)CCN(CC(=O)O)CC2)cc1)C(C)C)C(=O)N[C@@H](CCSC)C(N)=O [^68Ga-DOTA-Abz-BN Tris-, metal not drawn] ({DOTA-4Abz}-GGCQWAV[Cha]H[Nle]M-NH2)
1.0 × 10^5 sites/cell
